system: IGROV1 ovarian; assay: NCI tumour cell line growth inhibition, 48 h
recorded.endpoint: TGI (µM)
Write down the numeric answer in µM and omit the unit.

{"columns": ["compound", "assayed.target", "observed.measurement"],
 "data": [
  ["O=C1C(=O)c2ccc(Br)cc2-c2cc(Br)ccc21", "IGROV1 ovarian", 29.5],
  ["COc1ccc(-c2cc3c4c(nc5ccccc5c4c2)CC(c2cc(OC)c(OC)c(OC)c2)O3)cc1 (stereo not given)", "IGROV1 ovarian", 12.6],
  ["Nc1ccccc1C#C/C=C\\C#Cc1ccc(F)cc1F", "IGROV1 ovarian", 40.7],
  ["FC(F)(F)c1cc(Nc2ccc3c(OCCCN4CCOCC4)cccc3n2)ccc1Cl", "IGROV1 ovarian", 37.8],
  ["CC1=CC[C@@H]2[C@@H](CC[C@@]2(C)O)C(C)(C)[C@H]1CC[C@@H]1[C@@]2(C)CCC(=O)C(C)(C)O[C@@H]2CC[C@]1(C)O", "IGROV1 ovarian", 76.5]
]}

Request: Dear colleague, I am looking for the recorded TGI of the following compound: `CC1=C/C(=C(\c2ccc(N(C)C)cc2)c2ccc([N+](C)(C)C)cc2)C=CC1=[N+](C)C`
Response: 26.6

Request: Using the record for `COc1ccc(CN2C(=O)CCC/C=C\[C@H]2CI)cc1` , report its TGI.
Response: 29

Request: Need TGI of `COc1ccccc1-c1cc2c3c(nc4ccccc42)C(=O)c2cccnc2-c3n1` , thanks.
Response: 18.1

====

// values below are reported GI50
test system: A549 NSCLC; test: NCI tumour cell line growth inhibition, 48 h
Where a SMILES comes first, the peptide text is derived from it. [ ]: non-standard residue; d: D form. The star is where a group is joined. ξ: configuration not given here. X16 = COC1=CC(=O)N(C(=O)C(O*)C(C)C)C1Cc1ccccc1; ξNMe2Val = CC(C)C(C(=O)*)N(C)C; NMeV = CN[CH](C(=O)O)C(C)C

Solved cases below.
{"columns": ["compound", "observed.measurement"],
 "data": [
  ["COC1=CC(=O)N(C(=O)C(OC(=O)C2CCCN2C(=O)C2CCCN2C(=O)C(C(C)C)N(C)C(=O)C(NC(=O)C(C(C)C)N(C)C)C(C)C)C(C)C)C1Cc1ccccc1 (stereo unspecified) (ξNMe2Val-V[NMeV]PP-X16; configuration not given here)", "0.00715 µM"],
  ["OCC1SC(n2cnc3cncnc32)C(O)C1O (stereo unspecified)", "> 100 µM"],
  ["CCC(=O)Sc1ccccc1C(=O)Nc1ccc(Cl)cc1", "11.7 µM"]
]}

Request: Item `Cc1ccc(S(=O)(=O)N(C)C)cc1[N+](=O)[O-]` with A549 NSCLC - GI50?
Response: > 100 µM

Request: # returns recorded GI50 (system: A549 NSCLC) for C=C1CC2CC[C@@]34C[C@@H]5O[C@@H]6C(O[C@H]7CC[C@H](CC(=O)OC8[C@@H](C)C9OC%10C[C@]%11(C[C@@H]%12O[C@@]%13(C[C@@H](C)[C@@H]%12O%11)C[C@H](C)[C@@H]%11OC%12CC(C(O)CO)OC%12C[C@@H]%11O%13)OC%10CC9O[C@H]8C[C@H]8O[C@@H](CC[C@@H]1O2)C[C@@H](C)C8=C)O[C@@H]7[C@@H]6O3)C5O4 (stereo partly specified)
Response: < 0.000148 µM

Request: Fill in the recorded GI50 for this compound, with A549 NSCLC as test system: `C=C1C(=O)O[C@H]2[C@H]1CC/C(COC(=O)OCCCCCOC(=O)OC/C1=C/CC[C@@]3(C)O[C@H]3[C@H]3OC(=O)C(=C)[C@@H]3CC1)=C\CC[C@@]1(C)O[C@@H]21`
Response: 2.63 µM
